- TARGET OR SYSTEM: Adenosine receptor A2b (Homo sapiens)
- Sequence (P29275 whole entry): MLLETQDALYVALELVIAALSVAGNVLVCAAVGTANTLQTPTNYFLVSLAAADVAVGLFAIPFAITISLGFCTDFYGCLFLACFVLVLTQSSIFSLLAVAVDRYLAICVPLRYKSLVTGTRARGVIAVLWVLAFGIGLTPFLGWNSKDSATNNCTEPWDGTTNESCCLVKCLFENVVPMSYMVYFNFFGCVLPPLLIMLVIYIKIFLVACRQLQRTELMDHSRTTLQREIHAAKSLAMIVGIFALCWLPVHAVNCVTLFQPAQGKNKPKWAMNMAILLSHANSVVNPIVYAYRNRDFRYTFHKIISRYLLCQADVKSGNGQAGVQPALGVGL
- PROTOCOL SUMMARY: Displacement of [3H]OSIP339391 from human recombinant Adenosine A2B receptor expressed in HEK293 cells after 60 mins
- Assay type: cell-based
PROPERTY: pKi
# pKi is unitless: minus log10 of the molar concentration; print number only

// pKi lookup, compound = "CC(=O)NCCNc1nc(-c2ccccc2)nc2nc(C(=O)N3CCN(CCCc4ccccc4)CC3)[nH]c12" , result: 9.30

----------
- TARGET OR SYSTEM: Adenosine receptor A1 (Homo sapiens)
- Sequence (whole entry): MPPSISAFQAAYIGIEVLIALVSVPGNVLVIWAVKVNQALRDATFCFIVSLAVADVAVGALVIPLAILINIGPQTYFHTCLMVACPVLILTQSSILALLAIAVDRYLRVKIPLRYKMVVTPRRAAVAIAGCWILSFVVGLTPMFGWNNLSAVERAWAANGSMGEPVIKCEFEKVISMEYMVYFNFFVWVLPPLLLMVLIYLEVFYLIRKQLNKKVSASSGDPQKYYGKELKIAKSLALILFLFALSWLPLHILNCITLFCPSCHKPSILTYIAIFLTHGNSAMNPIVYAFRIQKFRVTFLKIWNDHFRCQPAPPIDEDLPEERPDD
- PROTOCOL SUMMARY: Displacement of [3H]DPCPX from human Adenosine A1 receptor expressed in CHO cells at 1 uM after 60 mins
- Type: cell-based
For each record, write down the corresponding Activity.
Write the number in % without appending the unit.

// Activity lookup, compound = CCOC(=O)C1=C(C)Nc2nc3ccccc3n2C1c1ccsc1 (racemic) , result: 3

// Activity lookup, compound = CC1=C(C(=O)OC(C)C)C(c2ccoc2)CC(=O)N1 (racemic) , result: 23

// Activity lookup, compound = CC1=C(C(=O)OC(C)C)C(c2ccco2)NC(=O)N1 (stereo not drawn) , result: 20

// Activity lookup, compound = CCOC(=O)C1=C(C)Nc2ncnn2C1c1ccco1 (racemic) , result: 15

// Activity lookup, compound = CCOC(=O)C1=C(C)NC(=O)CC1c1ccco1 (racemic) , result: 22

// Activity lookup, compound = CC1=C(C(=O)OC(C)C)C(c2cccs2)NC(=O)N1 (stereo not drawn) , result: 37

// Activity lookup, compound = CCOC(=O)C1=C(C)Nc2nc3ccccc3n2C1c1ccoc1 (racemic) , result: 7

// Activity lookup, compound = CC1=C(C(=O)OC(C)C)C(c2ccsc2)n2c(nc3ccccc32)N1 (racemic) , result: 11

// Activity lookup, compound = CCN1CC2=C(C1=O)C(c1ccsc1)NC(=O)N2 (racemic) , result: 27

// Activity lookup, compound = O=C1NC2=C(C(=O)OC2)C(c2ccsc2)N1 (racemic) , result: 13

// Activity lookup, compound = CC1=C(C(=O)OC(C)C)C(c2ccsc2)NC(=O)N1 (stereo not drawn) , result: 26

// Activity lookup, compound = CC1=C(C(=O)OC(C)C)C(c2ccsc2)CC(=O)N1 (racemic) , result: 4

// Activity lookup, compound = CCOC(=O)C1=C(C)Nc2nccn2C1c1cccs1 (racemic) , result: 2

// Activity lookup, compound = CC1=C(C(=O)OC(C)C)C(c2cccs2)n2ncnc2N1 (racemic) , result: 1

// Activity lookup, compound = CC1=C(C(=O)OC(C)C)C(c2ccco2)n2ccnc2N1 (racemic) , result: 3

// Activity lookup, compound = CCOC(=O)C1=C(C)NC(=O)NC1c1ccsc1 (stereo not drawn) , result: 22

// Activity lookup, compound = O=C1NC2=C(C(=O)OC2)C(c2ccoc2)N1 (racemic) , result: 9

// Activity lookup, compound = CC1=C(C(=O)OC(C)C)C(c2cccs2)n2ccnc2N1 (racemic) , result: 3

// Activity lookup, compound = CCOC(=O)C1=C(C)Nc2ncnn2C1c1cccs1 (racemic) , result: 1

// Activity lookup, compound = CCN1CC2=C(C1=O)C(c1ccoc1)NC(=O)N2 (racemic) , result: 16

// Activity lookup, compound = O=C1NC2=C(C(=O)OC2)C(c2cccs2)N1 (racemic) , result: 1

// Activity lookup, compound = CC1=C(C(=O)OC(C)C)C(c2ccoc2)NC(=O)N1 (stereo not drawn) , result: 25

// Activity lookup, compound = CCOC(=O)C1=C(C)NC(=O)NC1c1ccoc1 (stereo not drawn) , result: 21
